Assay: ATP-evoked calcium signal inhibitors, parental CHO, primary screen, counter-screen for OX1R antagonist project, cell-based, fluorescence, Fluo-8 calcium dye (AID 463079);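 note: 0% = ATP-challenged DMSO wells and 100% = DMSO wells without ATP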
Settings: parental CHO-K1, ATP-induced calcium, Fluo-8 fluorescence; at 5.6 µM; stronger effect = higher value
About 2,000 (0.61%) of roughly 330,000 compounds were called active. What follows is part of a selection rich in actives, with near analogues and random picks from the rest.
Assign inhibition to each entry below.
One number for each entry, in %.

Answered examples (6):
{"molecule": "COCCN(C(=O)CCC(=O)Nc1nccs1)C(C(=O)NCCC(C)C)c1ccc(F)cc1 (stereo not drawn)", "measurement_name": "inhibition", "observed": -13}
{"molecule": "Cc1ccc2c(c1)NC(=O)[C@@]1(C)[C@@H](c3ccccc3)[C@H]3COc4ccc(Cl)cc4[C@@H]3N1C2=O", "measurement_name": "inhibition", "observed": -11.9}
{"molecule": "CCCCn1c(SCc2ncc(-c3ccccc3)o2)nc2cc(S(N)(=O)=O)ccc21", "measurement_name": "inhibition", "observed": 36.6}
{"molecule": "CC(=O)NC(CC(=O)O)c1ccc(F)cc1 (stereo not drawn)", "measurement_name": "inhibition", "observed": 14.5}
{"molecule": "Cc1ccnc(-n2sc3ccccc3c2=O)n1", "measurement_name": "inhibition", "observed": 46.3}
{"molecule": "CN(C)c1ccc(/C=C2\\NC(=S)N(Cc3ccccc3)C2=O)cc1", "measurement_name": "inhibition", "observed": 70.7}

For the 6 molecules below, give their inhibition values.
1. CCCOC(=O)c1[nH]c2c(c1C)C(=O)CC(c1cccs1)C2 (stereo not drawn)
2. O=C(CSc1nc(-c2ccccc2)cs1)Nc1cccc([N+](=O)[O-])c1
3. CCN(CC)S(=O)(=O)c1ccc(N(C)Cc2cccc(OC)c2OC)nc1
4. COc1ccc(CNc2nccs2)cc1
5. CC1(C)Oc2ccc(C(=O)N3CCOCC3)cc2N(CC(=O)Nc2ccccc2)C1=O
6. CN(C)c1ccc(C=C2C(=O)OC3(CCCC3)OC2=O)cc1

1: -21.6; 2: -15.2; 3: 28.5; 4: -0.35; 5: -10.5; 6: -4.66

----------
Experiment: ATP-evoked calcium signal inhibitors, parental CHO, primary screen, counter-screen for OX1R antagonist project, cell-based, fluorescence, Fluo-8 calcium dye (AID 463079);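 note: 0% = ATP-challenged DMSO wells and 100% = DMSO wells without ATP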
Conditions: parental CHO-K1, ATP-induced calcium, Fluo-8 fluorescence; at 5.6 µM
About 2,000 (0.61%) of roughly 330,000 compounds were called active.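 Rule for the calls: active = inhibition above that plate's mean sample inhibition plus 3 SD (cut at about 26% in these data); inactive = the rest.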 The entries come from a sample that favours actives as a whole.
// allowed return values: YES = active, NO = inactive

Call for entry CCn1c(CSCc2c(Cl)cccc2Cl)n[nH]c1=S :
NO

----------
Task for the reader: assign each of the following compounds its reported inhibition.
Experiment: ATP-evoked calcium signal inhibitors, parental CHO, primary screen, counter-screen for OX1R antagonist project, cell-based, fluorescence, Fluo-8 calcium dye (AID 463079);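 note: 0% = ATP-challenged DMSO wells and 100% = DMSO wells without ATP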
Settings: parental CHO-K1, ATP-induced calcium, Fluo-8 fluorescence; at 5.6 µM; stronger effect = higher value
Hit rate of the full screen: of about 330,000 compounds, about 2,000 (0.61%) were called active. Shown is part of a subset that was picked to be rich in actives.

Some entries whose results are on file:
{"compound": "O=C(NC(Cc1ccccc1)C(=O)N1CCCC(C(F)(F)F)C1)c1ccccc1 (stereo unspecified)", "measurement_name": "inhibition", "observed": "-16.7% (inactive)"}
{"compound": "Cc1cc(OCCCN2CCN(Cc3ccccc3)CC2)ccc1[N+](=O)[O-]", "measurement_name": "inhibition", "observed": "18.6% (inactive)"}

Take each entry in turn and give its inhibition.
1. CCOC(=O)CSc1nnc(CNc2ccc(F)cc2)o1
2. Cc1cc(Cl)c2oc(C(=O)N(C)C(C)c3ccccn3)c(C)c2c1 (stereo unspecified)
3. COC(=O)c1cc(Oc2ccc(S(=O)(=O)N3CCOCC3)cc2[N+](=O)[O-])cc(C(=O)OC)c1
4. FC(F)(F)C1CCCN(c2nsc3ccccc23)C1 (stereo unspecified)
5. Cc1cc(OCCCCOc2ccc(C#N)cc2)ccc1[N+](=O)[O-]
6. O=C(NCC(=O)N1CCCC(C(F)(F)F)C1)c1ccccc1F (stereo unspecified)
7. CCC(=O)Nc1ccc(C(=O)CSc2nnc(CNc3ccc(Cl)cc3)o2)cc1OC
8. Oc1cc(O)c2c(c1)OC(c1ccc(O)c(O)c1)C(O)C2 (stereo unspecified)

1: 7.59% (inactive); 2: -25.6% (inactive); 3: -3.52% (inactive); 4: 51.7% (active); 5: 44.9% (active); 6: -5.99% (inactive); 7: 39.8% (active); 8: -0.43% (inactive)

# lookup: inhibition of Cc1cc(C)c(-c2c(O)c3ccccc3n(C)c2=O)c(C)c1
-6.96% (inactive)

----------
Experiment: ATP-evoked calcium signal inhibitors, parental CHO, primary screen, counter-screen for OX1R antagonist project, cell-based, fluorescence, Fluo-8 calcium dye (AID 463079);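 note: 0% = ATP-challenged DMSO wells and 100% = DMSO wells without ATP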
Conditions: parental CHO-K1, ATP-induced calcium, Fluo-8 fluorescence; at 5.6 µM; stronger effect = higher value
In all, about 330,000 compounds went through this assay and about 2,000 (0.61%) were called active. The full list was thinned out, with actives kept by preference.
measurement_name: inhibition (%)
Give bare numbers, in %.

Worked cases, inhibition given:
{"smiles_structure": "CCOC(=O)N1CCN(C(=O)C2CCN(Cc3ccc(OC)cc3OC)CC2)CC1", "inhibition, %": -15.1}
{"smiles_structure": "O=C1OCCN1C(=O)[C@H]1[C@H](c2ccccc2)C(c2ccc(F)cc2)=NN1c1ccccc1", "inhibition, %": -16.7}
{"smiles_structure": "COCCCNC(=O)c1ccc(CNS(=O)(=O)c2ccc(NC(C)=O)cc2)cc1", "inhibition, %": -6.87}

Go through the items and report each one's inhibition.
1. CCOC(=O)C1CCN(CC(=O)Nc2ccc(OC)c(S(=O)(=O)N3CCCCC3)c2)CC1
2. CCOC(=O)N1CCN(C(=O)C2CCN(S(=O)(=O)c3cc(Cl)ccc3OCC)CC2)CC1

1: -13.3; 2: -9.79

----------
Test: ATP-evoked calcium signal inhibitors, parental CHO, primary screen, counter-screen for OX1R antagonist project, cell-based, fluorescence, Fluo-8 calcium dye (AID 463079);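 note: 0% = ATP-challenged DMSO wells and 100% = DMSO wells without ATP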
Conditions: parental CHO-K1, ATP-induced calcium, Fluo-8 fluorescence; at 5.6 µM; stronger effect = higher value
The whole screen tested about 330,000 compounds, of which about 2,000 (0.61%) were called active. The entries come from a sample that favours actives as a whole.
Give measured inhibition for each item. Keep answers brief.

Answered examples (4):
{"smiles_structure": "CC(C)Sc1nnc([C@H](Cc2ccccc2)NC(=O)OC(C)(C)C)o1", "measurement_name": "inhibition", "observed": "-15.8% (inactive)"}
{"smiles_structure": "COC(=O)CNS(=O)(=O)c1ccc(OC)cc1", "measurement_name": "inhibition", "observed": "4.49% (inactive)"}
{"smiles_structure": "COc1cc(C(=O)NCc2nnc(SCC(=O)c3ccc(Cl)cc3)o2)cc(OC)c1OC", "measurement_name": "inhibition", "observed": "-35.5% (inactive)"}
{"smiles_structure": "C[C@H](NC(=O)OC(C)(C)C)c1nnc(SCC(=O)Nc2ccc(Br)cc2)o1", "measurement_name": "inhibition", "observed": "-14.8% (inactive)"}

Continue with the molecule presented below.
GET /values?readout=inhibition&item= C[C@@H](NC(=O)OC(C)(C)C)c1nnc(S(=O)(=O)Cc2ccccc2)o1
51.1% (active)

----------
Assign inhibition to each entry below.
Experiment: ATP-evoked calcium signal inhibitors, parental CHO, primary screen, counter-screen for OX1R antagonist project, cell-based, fluorescence, Fluo-8 calcium dye (AID 463079);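 note: 0% = ATP-challenged DMSO wells and 100% = DMSO wells without ATP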
Conditions: parental CHO-K1, ATP-induced calcium, Fluo-8 fluorescence; at 5.6 µM; stronger effect = higher value
Among all 330,000 compounds or so, about 2,000 (0.61%) were called active. Only a selection was taken, and actives are over-represented in it overall.
One number for each entry, in %.

The following compounds have reported results that may help.
{"smiles_structure": "O=C(O)/C=C/c1ccc(OCCCF)cc1", "observed": -5.89}
{"smiles_structure": "O=C(Cn1ccc2cc(S(=O)(=O)N3CCCC3)ccc21)NCc1ccccc1", "observed": -3.13}
{"smiles_structure": "O=C(/C=C/c1ccc2c(c1)OCCO2)c1ccc(O)cc1", "observed": 3.62}
{"smiles_structure": "CN(C)C(=O)CCc1ccc2c3c([nH]c2c1)[C@]1(CCc2ccccc2)[C@@H](C(=O)N2CCCCC2)C[C@H](CC(=O)NCCC2=CCCCC2)C(=O)N1CC3", "observed": -31.7}
{"smiles_structure": "O=[N+]([O-])/C=C/c1ccc2c(ccn2Cc2ccccc2)c1", "observed": 42}

Please go through the list and note inhibition for each compound.
1. O=C(/C=C(O)/C=C/c1ccc(O)cc1)/C=C/c1ccc(O)cc1
2. CCS(=O)(=O)c1ccc(O)c(NC(=O)COc2ccc(Cl)cc2)c1
3. O=C(NCCc1ccc(Cl)cc1Cl)c1cc([N+](=O)[O-])c[nH]c1=O
4. COC(=O)Cn1cc(/C=C/[N+](=O)[O-])c2ccccc21
5. COc1ccc(NC(=O)c2ccccc2[N+](=O)[O-])cc1OC

1: 44.2; 2: -4.26; 3: 26.2; 4: -9.14; 5: -4.31
